- experimental_system: UniProt P0DTD1
Measured Ki values are reported for all entries that follow.
Supply the numeric figure in nM, leaving out any unit text.

Query :: # query: Ki of entry CC(C)(C)OC(=O)N[C@H](C(=O)N1C[C@H]2[C@@H]([C@H]1C(=O)N[C@@H](C[C@@H]1CCNC1=O)C(=O)c1nc3ccccc3s1)C2(C)C)C(C)(C)C [Example 6]
Result :: 137

Query :: Moving on to the next compound: CC(C)[C@H](NS(C)(=O)=O)C(=O)N1C[C@H]2[C@@H]([C@H]1C(=O)N[C@@H](C[C@@H]1CCNC1=O)C(=O)c1nc3c(C(F)(F)F)cccc3s1)C2(C)C [Example 4]
Result :: 7.74

Query :: Moving on to the next compound: CC(C)[C@H](NS(=O)(=O)C(C)(C)C)C(=O)N1C[C@H]2[C@@H]([C@H]1C(=O)N[C@@H](C[C@@H]1CCNC1=O)C(=O)c1nc3ccccc3s1)C2(C)C [Example 12]
Result :: 34.2

Query :: Moving on to the next compound: CC1(C)[C@@H]2[C@@H](C(=O)N[C@@H](C[C@@H]3CCNC3=O)C(=O)c3nc4ccccc4s3)N(C(=O)[C@H]3CCCO3)C[C@@H]21 [Example 8]
Result :: 6330

Query :: Moving on to the next compound: CC(C)(C)[C@H](NS(C)(=O)=O)C(=O)N1C[C@H]2[C@@H]([C@H]1C(=O)N[C@@H](C[C@@H]1CCNC1=O)C(=O)c1nc3ccccc3s1)C2(C)C [Example 18]
Result :: 1.55

Query :: Moving on to the next compound: CC(=O)N[C@H](C(=O)N1C[C@H]2[C@@H]([C@H]1C(=O)N[C@@H](C[C@@H]1CCNC1=O)C(=O)c1nc3ccccc3s1)C2(C)C)C(C)(C)C [Example 19]
Result :: 9.77
